System: human RSV subtype A
Experiment: Cell culture assay for inhibition of pneumovirus replication (protection from virus-induced cytopathic effect), RSV-A
Format: cell-based
Details: human respiratory syncytial virus; Activity against human RSV subtype A (Table 2); values marked 2: protection achieved only 70-90% at highest concentrations tested; read-out: IC50
assay.endpoint: IC50 (µM)
Write the value in µM as a bare number.

Req: Jot down IC50 (human RSV subtype A) of NC(=O)c1ncn([C@@H]2O[C@H](CO)[C@@H](O)[C@H]2O)n1 [Ribavirin, reference compound] .
Resp: 24.3

---

Each item that follows carries a reported CC75.
Test system: normal cells
Experiment: MTT cytotoxicity assay
Format: cell-based
Conditions: highest compound concentration giving optical density ≧75% of control, 68 hours incubation
From the text: This assay measures cell viability, and therefore cytotoxicity, by quantitatively detecting the in situ reduction of 3-(4,5-dimethylthiazol-2-yl)-2,5-diphenyltetrazolium bromide (MTT) by viable cells. […] The optical density at 570 nm (OD570) of each well is read using a suitable microplate reader. Cell viability is expressed as the percentage of optical density for compound-treated cells relative to the optical density of solvent alone-treated control wells. […]
Write the value in µM as a bare number.

{"columns": ["molecule", "CC75 (µM)"],
 "data": [
  ["Nc1nncn1N=Cc1ccc(O)c(C(c2ccc(O)cc2)c2cc(C=Nn3cnnc3N)ccc2O)c1 (stereo not shown)", 18.8]
]}

API: the following record is the query input.
Req: Give the measured CC75 for Nc1ncnn1N=Cc1ccc(O)c(C(c2ccc(O)cc2)c2cc(C=Nn3ncnc3N)ccc2O)c1 (stereo not shown)
Resp: 12.5

The measurements presented in this section are drawn from patent US6495580B1.
